The reported measurements were obtained from PubChem BioAssay.

Experiment description: modulators of S6 phosphorylation in cells, primary screen, cell-based, A549, cytoblot, luminescence, serum-stimulated (AID 1158);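 further: serum-stimulated A549 lung adenocarcinoma cells; signal is phosphorylated S6 detected by cytoblot immunostaining with HRP secondary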
Condition info: A549 phospho-S6 cytoblot, 5 h, higher = more signal
# cutoff -0.3 applies to z-score; >= gives satisfied, < gives not satisfied

Reference set, count: 9
[[record]]
compound = "CN1C(=O)C2C(C1=O)C1C=C(CCCO)C2C(c2cccs2)N1C (stereo not given)"
group_label = "not satisfied"

[[record]]
compound = "CC(C)(C)OC(=O)CC[C@@]1(C(=O)O)N=C(c2ccc(OCCCO)cc2)O[C@@H]1c1ccccc1N=[N+]=[N-]"
group_label = "not satisfied"

[[record]]
compound = "Cc1ccc(S[C@]2(C(=O)NC3CC3)CC(=O)N(Cc3ccccc3)[C@@H]2c2ccc(CO)cc2)cc1"
group_label = "satisfied"

[[record]]
compound = "C[C@H]1NC(=O)[C@H](Cc2ccccc2)NC(=O)[C@@]23C(=O)N[C@@H](Cc4ccccc4)C2[C@H](C)[C@@]2(C)O[C@H]2C3/C=C/C/C=C\\CNC1=O (stereo not given in full)"
group_label = "satisfied"

[[record]]
compound = "COc1ccc([Si](C)(C)[C@H]2[C@H](CCn3cc(CCO)nn3)O[C@@]3(C(=O)N(Cc4ccc(N5CCOC5=O)cc4)c4ccccc43)[C@@H]2C)cc1"
group_label = "satisfied"

[[record]]
compound = "O=C1N(CCS(=O)(=O)c2ccccc2)Cc2ccccc2[C@H]2OC(c3ccc(OCCCO)cc3)=N[C@@]12CCS(=O)(=O)c1ccccc1"
group_label = "satisfied"

[[record]]
compound = "CC(c1ccccc1)C(O)C1C=CC2C(=O)NC(=O)C2N1Nc1ccccn1 (stereo not given)"
group_label = "not satisfied"

[[record]]
compound = "CCCN1C(=O)[C@]2(COC(c3ccc(OCCCO)cc3)=N2)Cc2ccccc21"
group_label = "satisfied"

[[record]]
compound = "O=c1cccc(C=Cc2ccccc2)o1"
group_label = "not satisfied"


Attention now shifts to the item below.
INPUT: Hello, I need to know if `Cc1ccc(F)cc1S(=O)(=O)N[C@@H]1CCN(Cc2ccc(-c3ccccc3)cc2)C1` has measured z-score not below -0.3. Thanks!
OUTPUT: satisfied
